Listed next: entries and their corresponding surviving fraction ratio K562 SF3B1 K700E / K562 SF3B1 WT.
- System: K562 SF3B1 K700E vs K562 SF3B1 WT
- experiment: surviving fraction ratio K562 SF3B1 K700E / K562 SF3B1 WT (each relative to DMSO); higher = less selective killing of SF3B1 K700E cells
- stated.conditions: 10nM; 5 days
Structures can show the parent of a compound that is named as a salt.
measure.name: surviving fraction ratio K562 SF3B1 K700E / K562 SF3B1 WT

>>> recorded_value("Cc1cn(-c2cc(NC(=O)c3ccc(C)c(Nc4nccc(-c5cccnc5)n4)c3)cc(C(F)(F)F)c2)cn1")
0.816
>>> recorded_value("Nc1nc(=S)c2[nH]cnc2[nH]1")
0.819
>>> recorded_value("Cn1nnc2c(C(N)=O)ncn2c1=O [temozolomide]")
0.765
>>> recorded_value("COc1cc2ncnc(Nc3ccc(F)c(Cl)c3)c2cc1OCCCN1CCOCC1")
0.768
>>> recorded_value("CC[C@@H](C(=O)[C@@H](C)[C@@H](O)[C@H](C)[C@@H]1O[C@@H]([C@@H](CC)C(=O)O)CC[C@@H]1C)[C@H]1O[C@]2(C=C[C@@H](O)[C@]3(CC[C@@](C)([C@H]4CC[C@](O)(CC)[C@H](C)O4)O3)O2)[C@H](C)C[C@@H]1C")
1.27
>>> recorded_value("COCC[n+]1c2c(n(Cc3cnccn3)c1C)C(=O)c1ccccc1C2=O")
1.8
>>> recorded_value("Nc1ccn([C@@H]2O[C@H](CO)[C@@H](O)C2(F)F)c(=O)n1 [gemcitabine.HCl]")
0.491
>>> recorded_value("CO[C@H]1C[C@@H]2CC[C@@H](C)[C@@](O)(O2)C(=O)C(=O)N2CCCC[C@H]2C(=O)O[C@H]([C@H](C)C[C@@H]2CC[C@@H](OCCO)[C@H](OC)C2)CC(=O)[C@H](C)/C=C(\\C)[C@@H](O)[C@@H](OC)C(=O)[C@H](C)C[C@H](C)/C=C/C=C/C=C/1C")
0.806
>>> recorded_value("CCCS(=O)(=O)Nc1ccc(F)c(C(=O)c2c[nH]c3ncc(Cl)cc23)c1F")
0.874
